# Tested on: M. mycetomatis isolate MM55
# assay: M. mycetomatis grain infection model in G. mellonella larvae, survival
# Format: in vivo, Galleria mellonella
# setup_conditions: in vivo
measure: In vivo efficacy, Enhanced survival compared to control?

| molecule | data_value |
| --- | --- |
| C[C@@H](c1nc(-c2ccc(C#N)cc2)cs1)[C@](O)(Cn1cncn1)c1ccc(F)cc1F [MMV1634362, Ravuconazole] | yes * |
| COC(=O)Nc1nc2ccc(Sc3ccccc3)cc2[nH]1 [MMV003143, Fenbendazole] | yes * |
| O[C@@](Cn1cnnn1)(c1ccc(F)cc1F)C(F)(F)c1ccc(-c2ccc(OCC(F)(F)F)cc2)cn1 [MMV1634386, Oteseconazole, reference compound] | no |
| Oc1c(C(Nc2nc3ccccc3s2)c2ccc(OC(F)F)cc2)ccc2cccnc12 (stereo not drawn) [MMV019724] | no |

Measured In vivo efficacy, Enhanced survival compared to control? of Clc1cc(Cl)c2c(c1)CCc1ccccc1C2n1ccnc1 (stereo not drawn) [MMV1634492, Eberconazole, reference compound] : no

----------
# Test system: M. mycetomatis genome strain MM55
# assay: CLSI M38-A2 based in vitro susceptibility screening (XTT or resazurin), growth at fixed concentration
# Assay type: cell-based, Madurella mycetomatis
# setup_conditions: Madurella mycetomatis, 25 uM, mean of three replicates; read-out: Percentage survival at 25um, 25 uM mean
Define the label as met when activity at 25 µM is strictly less than 90% and as not met in all remaining cases.

Illustrative cases are given below, each with its answer.
| compound | class_label |
| --- | --- |
| FC(F)(F)Oc1ccc(Nc2ccc3cccc(Cl)c3n2)cc1 | met |
| CC[N+]1(C/C2=C/CCCCCC2)CCC(NC(=O)C2c3cc(Cl)ccc3Oc3ccc(Cl)cc32)CC1 (stereo not drawn) | not met |
| N=C(N)NCCCCC(=O)Nc1cc(C(F)(F)F)cc(NC(=O)c2cc(C(=O)Nc3cc(C(F)(F)F)cc(NC(=O)CCCCNC(=N)N)c3O[C@@H]3CCNC3)ncn2)c1O[C@@H]1CCNC1 | met |

Prompt line: Here's an entry: CCC(CC)[C@H](NC(C)=O)[C@@H]1[C@H](O)[C@@H](C(=O)O)C[C@H]1NC(=N)N . Is its activity at 25 µM below 90%?
Response line: not met

Prompt line: Here's an entry: O=C(O)c1sccc1S(=O)(=O)n1ccc2cc(Br)ccc21 . Is its activity at 25 µM below 90%?
Response line: not met

Prompt line: Here's an entry: Nc1cnn(C2OC(CO)C(O)C2O)c(=O)n1 (stereo not drawn) . Is its activity at 25 µM below 90%?
Response line: met

----------
# System: M. mycetomatis genome strain MM55
# assay: CLSI M38-A2 based in vitro susceptibility screening (XTT or resazurin), growth at fixed concentration
# Type: cell-based, Madurella mycetomatis
# setup_conditions: Madurella mycetomatis, 100 uM, third replicate column; read-out: Percentage survival at 100um, 100 uM A
activity at 100 µM reference
I'd appreciate it if you included the unit after the number.

Examples from the recorded data:
| compound | system | data_value |
| --- | --- | --- |
| Nc1cnn(C2OC(CO)C(O)C2O)c(=O)n1 (centres unmarked) | M. mycetomatis genome strain MM55 | 72.9% |
| COc1ccc(COc2cc3oc(=O)c4cc(C(C)O)ccc4c3cc2OC)cc1 (centres unmarked) | M. mycetomatis genome strain MM55 | 97% |
| CC(C)(C)NC(=O)[C@@H]1C[C@@H]2CCCC[C@@H]2CN1C[C@@H](O)[C@H](Cc1ccccc1)NC(=O)[C@H](CC(N)=O)NC(=O)c1ccc2ccccc2n1 | M. mycetomatis genome strain MM55 | 82.8% |
| O=C(O)[C@H]1C2CCC(CC2)[C@@H]1Nc1nc(-c2c[nH]c3ncc(F)cc23)ncc1F | M. mycetomatis genome strain MM55 | 86.5% |
| O=S(=O)(Nc1ccc(O)cc1)c1cccc2cccnc12 | M. mycetomatis genome strain MM55 | 89.3% |
| COc1ccccc1CN[C@H]1C2CCN(CC2)[C@H]1C(c1ccccc1)c1ccccc1 | M. mycetomatis genome strain MM55 | 82% |
| COc1ccc(-n2cnc3cc(NCc4ccco4)ccc32)cc1 | M. mycetomatis genome strain MM55 | 1.23% |
| CC(C)N(c1cc(-c2ccccc2)sc1C(=O)O)C(=O)[C@H]1CC[C@H](C)CC1 | M. mycetomatis genome strain MM55 | 77% |

Measured activity at 100 µM of Nc1nc2c(ncn2[C@@H]2O[C@H](CO)[C@@H](O)[C@H]2F)c(=O)[nH]1 : 84.7%

Measured activity at 100 µM of NC1C2CC3CC(C2)CC1C3 (centres unmarked) : 87.1%

Measured activity at 100 µM of COc1ccc2c(c1OC)C(=O)OC2C1c2c(cc3c(c2OC)OCO3)CCN1C (centres unmarked) : 76.7%

----------
# Test system: M. mycetomatis genome strain MM55
# assay: CLSI M38-A2 based in vitro susceptibility screening (XTT or resazurin), growth at fixed concentration
# Type: cell-based, Madurella mycetomatis
# setup_conditions: Madurella mycetomatis, 100 uM, third replicate column; read-out: Percentage survival at 100um, 100 uM A
activity at 100 µM reference
Report as a plain number; the unit % is understood.

Examples from the recorded data:
| compound | system | unit_abbreviation | activity at 100 µM |
| --- | --- | --- | --- |
| Nc1nc(O)c2ncn(COCCO)c2n1 | M. mycetomatis genome strain MM55 | % | 85 |
| CC(=O)N1c2ccccc2NC2=C(C(=O)CC(C)(C)C2)C1c1ccc(OCc2ccccc2)cc1 (stereo not drawn) | M. mycetomatis genome strain MM55 | % | 80.9 |
| Cc1ccccc1NC(=O)Nc1cccc([N+](=O)[O-])c1 | M. mycetomatis genome strain MM55 | % | 77.8 |

Measured activity at 100 µM of NC(=O)c1ccc(I)c([N+](=O)[O-])c1 : 87.5

Measured activity at 100 µM of Cc1[nH]c2ccccc2c1CCNCc1ccc(/C=C/C(=O)NO)cc1 : 75.6

Measured activity at 100 µM of CC[C@@]1(O)C(=O)OCc2c1cc1n(c2=O)Cc2cc3c(CN(C)C)c(O)ccc3nc2-1 : 86.9

Measured activity at 100 µM of C[C@H](Cn1cnc2c(N)ncnc21)OCP(=O)(O)O : 84.8

Measured activity at 100 µM of CCc1cc(CCC(=O)Nc2ccccc2O)c(=O)[nH]c1C : 85.1

Measured activity at 100 µM of Cc1nc2ccc(Cl)cc2c(-c2ccccc2)c1CC(=O)O : 87.5

----------
activity at 25 µM reference
# Test system: M. mycetomatis genome strain MM55
# assay: CLSI M38-A2 based in vitro susceptibility screening (XTT or resazurin), growth at fixed concentration
# Format: cell-based, Madurella mycetomatis
# setup_conditions: Madurella mycetomatis, 25 uM, replicate A, M. mycetomatis MM55; read-out: Percentage survival at 25um, 25 um A

Examples from the recorded data:
| molecule | data_value |
| --- | --- |
| CC(=O)O[C@H]1C[C@@]2(C)[C@@H](C[C@@H](O)[C@H]3[C@@]4(C)CC[C@@H](O)[C@@H](C)[C@@H]4CC[C@@]32C)/C1=C(\CCC=C(C)C)C(=O)O [MMV1578575] | 96.4% |
| CCc1cc(O)c(Oc2cccnc2N)cc1F [MMV1580854] | 97.5% |
| O=S(=O)(Nc1ccc(-n2cccc2)cc1)c1ccc(Cl)c(Cl)c1 [MMV1505642] | -1.91% |
| COc1ccc(NC(=O)CC2Sc3ncnn3C2=O)cc1 (centres unmarked) [MMV1483032] | 82.6% |
| Cc1cc(-c2ccccc2)c(C(=O)C(=O)Nc2ccc(N3CCN(c4ncc(F)cn4)CC3)cc2)n1C [MMV1782354, Olorofim] | 5.03% |
| CO[C@@]1(NC(=O)Cc2cccs2)C(=O)N2C(C(=O)O)=C(COC(N)=O)CS[C@@H]21 [MMV1578559] | 91.6% |

Measured activity at 25 µM of N=C(N)c1ccc(COc2ccc(Cl)cc2)cc1 [MMV1579844] : 69.6%

Measured activity at 25 µM of CCc1nc2ccccn2c1C(=O)NCc1ccccc1 [MMV1663457] : 58%

----------
activity at 25 µM reference
# Test system: M. mycetomatis genome strain MM55
# assay: CLSI M38-A2 based in vitro susceptibility screening (XTT or resazurin), growth at fixed concentration
# Format: cell-based, Madurella mycetomatis
# setup_conditions: Madurella mycetomatis, read-out: Percentage survival at 25um, 25 uM C
Report as a plain number; the unit % is understood.

Examples from the recorded data:
| compound | activity at 25 µM [%] |
| --- | --- |
| C[C@H]1CC[C@]2(NC1)O[C@H]1C[C@H]3[C@@H]4CC[C@H]5C[C@@H](O)CC[C@]5(C)[C@H]4CC[C@]3(C)[C@H]1[C@@H]2C [MMV003069] | 91.1 |
| CCCCc1ccc(C(=O)O)nc1 [MMV001726] | 77.4 |
| NS(=O)(=O)c1ccc(NC(=O)NC(c2ccccc2)c2ccccc2)cc1 [MMV1579776] | 86.7 |
| CC[C@@]1(O)C(=O)OCc2c1cc1n(c2=O)Cc2cc3c([N+](=O)[O-])cccc3nc2-1 [MMV1580796] | 81.7 |
| CC[C@H](CO)Nc1nc(NCc2ccccc2)c2ncn(C(C)C)c2n1 [MMV003820] | 43.5 |

Measured activity at 25 µM of O=C(NC12CC3CC(CC(C3)C1)C2)c1cc2ccccc2[nH]1 [MMV1578577] : 75.7

Measured activity at 25 µM of Nc1c(C(=O)NCc2ccco2)c2nc3ccccc3nc2n1CCN1CCCCC1 [MMV099714] : 13

Measured activity at 25 µM of Nc1nc2c(Cc3cccnc3)c[nH]c2c(=O)[nH]1 [MMV1782355] : 78.5

Measured activity at 25 µM of CC1(C)[C@H](C(=O)O)N2C(=O)C[C@H]2S1(=O)=O [MMV637945] : 84.6
